Test system: Pseudomonas aeruginosa PAO1
Construct: PAO1
measurementNotes: microbe, parasite or virus in culture
Design: broth microdilution MIC in cation-adjusted Mueller-Hinton broth, visual growth or resazurin
measurementParameters: PAO1, 20 h, read-out: MIC PAO1
Description: Analysis of antimicrobial susceptibilities. […] The BMD method was performed on cation adjusted MH broth (CAMHB) as recommended 41, 42 . Bacteria were first grown overnight in CAMHB using CLSI-recommended incubation conditions and the antibiotics were serially diluted twofold across the 96 well plates. […] MICs were determined as the concentration at which the zone of inhibition intersected the Etest strip.
measure: log10 MIC (log10 of the value in µg/mL)
Reminder: these figures are log10 of reported MIC, in µg/mL before transformation.

# example entries with known answers
compound	log10 MIC
C[C@@H](O)[C@H]1C(=O)N2C(C(=O)O)=C(SCCNC=N)C[C@H]12	0.60
CC1COc2c(N3CCN(C)CC3)c(F)cc3c(=O)c(C(=O)O)cn1c23 (stereo not shown)	0.90
C[C@@H](O)[C@H]1C(=O)N2C(C(=O)O)=C(S[C@@H]3CN[C@H](C(=O)N(C)C)C3)[C@H](C)[C@H]12	0.00
CC1(C)S[C@@H]2[C@H](NC(=O)[C@H](C(=O)O)c3ccsc3)C(=O)N2[C@H]1C(=O)O	1.20

Q: # query: log10 MIC of entry CN(C)c1cc(NC(=O)CNC(C)(C)C)c(O)c2c1C[C@H]1C[C@H]3[C@H](N(C)C)C(O)=C(C(N)=O)C(=O)[C@@]3(O)C(O)=C1C2=O
A: 1.51

Q: # query: log10 MIC of entry CCn1cc(C(=O)O)c(=O)c2cc(F)c(N3CCNCC3)cc21
A: 0.60

Q: # query: log10 MIC of entry CC(C)(O/N=C(\C(=O)N[C@@H]1C(=O)N2C(C(=O)[O-])=C(C[n+]3ccccc3)CS[C@H]12)c1csc(N)n1)C(=O)O
A: 0.00

Q: # query: log10 MIC of entry CN[C@@H]1[C@H](O[C@H]2[C@H](O[C@H]3[C@H](O)[C@@H](O)[C@H](N=C(N)N)[C@@H](O)[C@@H]3N=C(N)N)O[C@@H](C)[C@]2(O)C=O)O[C@@H](CO)[C@H](O)[C@H]1O
A: 0.90

Taken from paper PMC8035174.
